All values here come from patent US20210355194A1.

target: SARS-CoV-2 S protein trimer (SARS-CoV-2, UniProt P0DTC2 14-1208); assay: Carterra SPR, Fc capture, S trimer
Below: a set of entries, each annotated with reported pKd.
Hey, just a heads up that pKd is the negative log base 10 of the concentration in molar.

Which pKd value belongs to 2-5 (antibody, V domains shown, also called variant 2-5) VH: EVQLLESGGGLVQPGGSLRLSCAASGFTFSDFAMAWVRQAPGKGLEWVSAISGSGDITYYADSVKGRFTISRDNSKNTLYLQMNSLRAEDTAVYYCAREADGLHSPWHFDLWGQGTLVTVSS VL: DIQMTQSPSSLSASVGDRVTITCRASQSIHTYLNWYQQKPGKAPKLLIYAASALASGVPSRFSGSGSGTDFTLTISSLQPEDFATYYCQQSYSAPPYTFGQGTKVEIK ?
7.04

Further cases:
Suppose we examine the binder 2-9 (antibody, V domains shown, also called variant 2-9) VH: EVQLLESGGGLVQPGGSLRLSCAASGFTFPRYAMSWVRQAPGKGLEWVSTISGSGSTTYYADSVKGRFTISRDNSKNTLYLQMNSLRAEDTAVYYCARLIDAFDIWGQGTLVTVSS VL: DIQMTQSPSSLSASVGDRVTITCRASQRIGTYLNWYQQKPGKAPKLLIYAASNLEGGVPSRFSGSGSGTDFTLTISSLQPEDFATYYCQQNYSTTWTFGQGTKVEIK ; what pKd value has been reported?
4.63

Moving on to the next binder: 2-12 (antibody, V domains shown, also called variant 2-12) VH: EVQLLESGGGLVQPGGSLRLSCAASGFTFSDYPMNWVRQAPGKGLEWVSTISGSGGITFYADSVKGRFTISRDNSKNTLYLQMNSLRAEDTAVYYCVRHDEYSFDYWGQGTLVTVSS VL: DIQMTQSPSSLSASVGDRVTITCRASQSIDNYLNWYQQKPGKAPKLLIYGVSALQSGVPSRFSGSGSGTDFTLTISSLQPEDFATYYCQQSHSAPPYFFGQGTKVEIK
8.49

Check 2-2 (antibody, V domains shown, also called variant 2-2) VH: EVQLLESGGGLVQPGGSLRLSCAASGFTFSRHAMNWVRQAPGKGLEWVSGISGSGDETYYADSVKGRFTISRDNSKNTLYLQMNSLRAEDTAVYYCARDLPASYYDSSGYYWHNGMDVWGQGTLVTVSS VL: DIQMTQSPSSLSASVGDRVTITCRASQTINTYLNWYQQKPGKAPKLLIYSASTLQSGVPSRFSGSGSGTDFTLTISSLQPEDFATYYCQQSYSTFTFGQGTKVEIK too.
9.10
